- assayed-target: T1, Human GPA33 (recombinant protein, Novoprotein) (human, UniProt Q99795 22-235)
- T1 construct: Bought recombinant protein immobilized on a CM5 chip; also called GPA33 antigen; tumor antigen GPA33
- T1 sequence: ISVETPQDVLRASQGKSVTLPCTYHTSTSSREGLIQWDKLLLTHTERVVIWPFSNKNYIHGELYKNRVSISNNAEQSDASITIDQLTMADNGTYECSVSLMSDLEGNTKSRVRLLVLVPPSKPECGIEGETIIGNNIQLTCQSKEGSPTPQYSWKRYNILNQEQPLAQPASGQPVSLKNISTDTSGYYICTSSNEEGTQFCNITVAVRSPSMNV
- assay-name: SPR (Biacore), binding to GPA33 protein; IgG format
- Description: SPR analysis. Human GPA33 (Novoprotein, Summit, NJ) was immobilized on CM5 chips. Five concentrations of 2-fold serially diluted huA33 IgG1 or huA33-BsAbs (starting at 20 nM) were flowed over the chip using a Biacore™ T100 system (GE Healthcare, Chicago, IL). Binding kinetics of huA33 were measured at 25° C. and binding kinetics of huA33-BsAbs were measured at both 25° C. and 37° C. The sensorgrams were fitted with two state binding model for both to derive kinetic parameters.
measured-metric: Kd (nM)

G3A_VK5+VH3 (antibody, V domains shown) VH: EVQLVESGGGLVKPGGSLRLSCAASGFAFSTYDMSWVRQAPGKGLEWVATISSGGSYTYYADSVKGRFTISRDSAKNSLYLQMNSLRAEDTAVYYCAPTTVVPFAYWGQGTLVTVSA VL: DIQMTQSPSSLSASVGDRVTITCKASQNVRTVVAWYQQKPGKAPKTLIYLASNRHTGVPSRFSGSGSGTEFTLTISNLQPEDFATYYCLQHWSYPLTFGSGTKLEVK : 0.238
G3A_VK3+VH3 (antibody, IgG1, V domains shown) VH: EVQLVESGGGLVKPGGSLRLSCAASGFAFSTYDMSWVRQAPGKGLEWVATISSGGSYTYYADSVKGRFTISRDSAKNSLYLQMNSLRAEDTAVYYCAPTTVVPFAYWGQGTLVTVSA VL: DIQMTQSPSSLSTSVGDRVTITCKASQNVRTVVAWYQQKPGKAPKTLIYLASNRHSGVPSRFSGSGSGTEFTLTISNLQPEDFATYYCLQHWSYPLTFGSGTKLEVK : 0.241
